Entry source: PubChem BioAssay

Tested system: NADPH oxidase 2 (Homo sapiens) (UniProt P04839)
Sequence (P04839 whole entry, looked up): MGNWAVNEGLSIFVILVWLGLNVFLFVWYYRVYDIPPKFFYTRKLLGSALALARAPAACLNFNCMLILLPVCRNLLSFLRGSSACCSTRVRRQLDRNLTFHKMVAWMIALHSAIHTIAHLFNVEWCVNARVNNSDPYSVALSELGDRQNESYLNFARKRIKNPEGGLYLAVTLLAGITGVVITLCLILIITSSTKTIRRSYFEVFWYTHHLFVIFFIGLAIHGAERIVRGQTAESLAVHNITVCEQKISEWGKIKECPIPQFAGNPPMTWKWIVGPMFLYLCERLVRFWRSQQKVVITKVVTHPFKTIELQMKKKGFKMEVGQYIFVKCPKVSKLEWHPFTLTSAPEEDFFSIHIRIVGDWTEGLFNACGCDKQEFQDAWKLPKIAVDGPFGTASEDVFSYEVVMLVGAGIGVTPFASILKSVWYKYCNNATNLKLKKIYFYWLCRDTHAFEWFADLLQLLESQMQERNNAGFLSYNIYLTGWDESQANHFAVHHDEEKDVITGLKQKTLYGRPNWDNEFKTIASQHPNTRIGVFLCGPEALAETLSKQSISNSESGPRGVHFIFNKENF
Procedure details: NOX2-dependent H2O2 signal modulators, primary screen, NOX inhibitor project, cell-based, HEK293-NOX2, PMA-stimulated, Amplex Red fluorescence (AID 1159); also: test concentration not given here
Assay conditions: 45 min, higher = more signal, called active from +8 up or from −8 down
# reported z-score; entries follow
// response body must contain only the number

Exercise: Query (molecule): COCCOC(=O)N1C(=O)[C@@]2(c3cc(C#CCNC(N)=O)ccc31)[C@H](c1ccc(O)cc1)N1[C@H](c3ccccc3)[C@H](c3ccccc3)OC(=O)[C@H]1[C@@H]2C(=O)N1CCc2cc(OC)c(OC)cc2C1 ; field requested: z-score
Key: 1.15

Exercise: Query (molecule): CN1C(=O)C2C=CC(C(O)c3ccc(I)cc3)N(N(c3ccccc3)c3ccccc3)C2C1=O (stereo not drawn) ; field requested: z-score
Key: 0.461

Exercise: Query (molecule): COc1ccc([Si](C)(C)[C@H]2[C@H](CC(=O)N(CCO)Cc3ccccc3)O[C@@]3(C(=O)N(Cc4cccc(N5CCCCC5=O)c4)c4ccccc43)[C@@H]2C)cc1 ; field requested: z-score
Key: 0.0671
